biological target: full-length beta-Catenin (Uniprot ID P35222) (Homo sapiens (Human)) (UniProt P35222); assay: fluorescence polarization competition; full-length beta-catenin with 5FAM-TCF4(10-53) probe as competitor
Starred links: 1 amine or outer side, 2 acyl side, 3 side chain; linkers in the order of their positions; H or OH if unused. Positions of bridges follow the written chain, without caps; N, C: chain ends. Non-standard residues stand in square brackets, D forms with d. Primed or numbered codes have the meaning given here. B5(4) = 2,2-bis(4-pentenyl)glycine = 2-amino-2-(pent-4-en-1-yl)hept-6-enoic acid (stitching residue), C=CCCCC(CCCC=C)(N[*:1])C(=O)[*:2]; B5(5) = 2,2-bis(4-pentenyl)glycine, 2-amino-2-(pent-4-en-1-yl)hept-6-enoic acid (stitching residue), C=CCCCC(CCCC=C)(N[*:1])C(=O)[*:2]; B5 = 2-amino-2-(pent-4-en-1-yl)hept-6-enoic acid, C=CCCCC(CCCC=C)(N[*:1])C(=O)[*:2]; Phe(4-COOH) = N[C@@H](Cc1ccc(C(=O)O)cc1)C(=O)O; Bta = N[C@@H](Cc1csc2ccccc12)C(=O)O; αAllylPro = C=CC[C@@]1(C(=O)O)CCCN1; 2Thi = N[C@@H](Cc1cccs1)C(=O)O; Aad = N[C@@H](CCCC(=O)O)C(=O)O; S8 = C=CCCCCCC[C@](C)(N)C(=O)O; Abu = CC[C@H](N)C(=O)O

{"binder": "Ac-[αAllylPro]DA[B5(4)]DEAA[2Thi]Q[S8]F[Bta]Q-NH2 (staple 1-4, 4-11; also: later eluting HPLC peak (staple isomer)) [I-487]", "IC50 (nM)": 45}
{"binder": "Ac-[αAllylPro]DI[B5(5)]D[Phe(4-COOH)]AAFQ[S8]F[Bta]Q-NH2 (staple 1-4, 4-11; also: staple isomer, earlier eluting HPLC peak) [I-606]", "IC50 (nM)": 289}
{"binder": "Ac-[αAllylPro]DI[B5]D[Aad]AAFQ[S8]F[Bta]Q-NH2 (staple 1-4, 4-11) [I-612]", "IC50 (nM)": 64}
{"binder": "Ac-[αAllylPro]D[Abu][B5(4)]DEAAFN[S8]F[Bta]Q-NH2 (staple 1-4, 4-11) [I-474]", "IC50 (nM)": 43}
{"binder": "Ac-[αAllylPro]DA[B5(4)]DEAA[2Thi]Q[S8]F[Bta]Q-NH2 (staple 1-4, 4-11; also: earlier eluting HPLC peak (staple isomer)) [I-486]", "IC50 (nM)": 147}
